Sourced from PubChem BioAssay (NCI)

- System: OVCAR-4 ovarian
- protocol-notes: NCI tumour cell line growth inhibition, 48 h; in the data active = GI50 below about 0.43 µM; inactive = the rest
Choose the fitting class; nothing outside 1.0 (active), 0.0 (inactive) is accepted.

Solved entries:
Write down the call the test reported for this compound. Item: CC12CC=CCC1CCC1C2CCC2(C)C(c3ccc(=O)oc3)CCC12O (stereo not given)
1.0

Write down the call the test reported for this compound. Item: CNCCNc1nc2ccccc2c2c(=O)c3cc(OC)ccc3sc12
0.0

Further cases:
Write down the call the test reported for this compound. Item: CCOC(=O)c1c2c(n(Cc3ccccc3)c1C)-c1nc(Cc3ccccc3)[nH]c1C(=O)C2=O
0.0

Write down the call the test reported for this compound. Item: COc1ccc([C@@H](O)c2cc(-c3ncnc4cc(N5CCOCC5)ccc34)c(F)cc2Cl)nn1
0.0

Write down the call the test reported for this compound. Item: COC(=O)[C@H]1[C@H]2C[C@@H]3c4[nH]c5cc(OC)ccc5c4CCN3C[C@H]2C[C@@H](OC(=O)/C=C/c2cc(OC)c(OC)c(OC)c2)[C@@H]1OC
0.0

Write down the call the test reported for this compound. Item: CNCCNc1nc2ccccc2c2c(=O)c3cc(F)ccc3sc12
0.0

Write down the call the test reported for this compound. Item: CCCCCCNC(=O)n1cc(F)c(=O)[nH]c1=O
0.0

Write down the call the test reported for this compound. Item: O=C(N/N=C/c1ccc(Cl)cc1)c1[nH]c2ccc(Cl)cc2c1-c1ccccc1
1.0

Write down the call the test reported for this compound. Item: CCCCN(CC)c1ncnc2ccc(Br)cc12
0.0

Write down the call the test reported for this compound. Item: Cc1cc2nc(-c3c(N)ncc(C#N)c3-c3ccc(Cl)cc3)[nH]c2cc1C
0.0

---

- System: ACHN renal
- protocol-notes: NCI tumour cell line growth inhibition, 48 h
As shown below, each of these compounds has a reported TGI value.
Kindly answer with a numeric value in µM, unit omitted.

Fill in the blank: the reported TGI of COc1ccccc1NC(=S)N/N=C/c1ccccn1 is ____.
8.9

Fill in the blank: the reported TGI of COC1(OC)C=CC(=O)C=C1 is ____.
8.56

Fill in the blank: the reported TGI of CC(/C=C/NNC1=NC(c2ccccc2)C(c2ccccc2)=NN1)Sc1ccccc1N (configuration not stated) is ____.
22.2

Further cases:
Fill in the blank: the reported TGI of CC1=NOC(=O)C1N=Nc1ccc(Br)c(C)c1 (configuration not stated) is ____.
32

Fill in the blank: the reported TGI of COc1ccc([C@@H](O)c2cc(-c3ncnc4cc(N5CCOCC5)ccc34)c(F)cc2Cl)nn1 is ____.
91

Fill in the blank: the reported TGI of CC12CC=CCC1CCC1C2CCC2(C)C(c3ccc(=O)oc3)CCC12O (configuration not stated) is ____.
0.138

Fill in the blank: the reported TGI of CC1CN=C(c2ccc(CN3CCC(C4CCN(Cc5ccc(C6=NCC(C)N6)cc5)CC4)CC3)cc2)N1 (configuration not stated) is ____.
75.9

Fill in the blank: the reported TGI of O=C1/C(=C/c2ccc(O)cc2)CCC1CNc1ccccc1 (configuration not stated) is ____.
24.8

Fill in the blank: the reported TGI of Nn1c(Sc2nc3ccccc3c(=O)n2N)nc2ccccc2c1=O is ____.
26.4

---

- Test system: TK-10 renal
- protocol-notes: NCI tumour cell line growth inhibition, 48 h
As shown below, each of these compounds has a reported TGI value.

Please review the following examples before continuing.
Fill in the blank: the reported TGI of COc1cc2c3c(ncc2c(OC)c1OC)-c1cc2c(cc1C3)OCO2 is ____.
46.5 µM

Fill in the blank: the reported TGI of CC1(C)C=[N+]([O-])C(C)(C)N1O is ____.
> 10 µM

Fill in the blank: the reported TGI of COC(=O)[C@@H]1C=C[C@H](NC(C)=O)C1 is ____.
> 100 µM

Fill in the blank: the reported TGI of COc1cc2oc(=O)cc(C)c2c(OC)c1OC(C)=O is ____.
> 100 µM

Next compound, please.
Fill in the blank: the reported TGI of O=C1c2ccccc2C(=O)c2nn(N=P(CP(=Nn3nc4c(n3)C(=O)c3ccccc3C4=O)(c3ccccc3)c3ccccc3)(c3ccccc3)c3ccccc3)nc21 is ____.
> 100 µM
